Kd overview
Biological target: T1, ParB 65-139 (RHH domain) (Leifsonia xyli subsp. cynodontis …, UniProt Q6EEF9 65-139)
T1 sequence: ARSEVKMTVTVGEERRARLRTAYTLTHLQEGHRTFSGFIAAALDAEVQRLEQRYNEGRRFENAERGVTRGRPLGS
Assay: ITC
Supply the numeric figure in nM, leaving out any unit text.

Example results:
binder	resultUnit	Kd
R3-18-1A (dsDNA) DNA 1: AGAATAGGTGGAAAAGCC DNA 2: GGCTTTTCCACCTATTCT	nM	56
R3-18-13T (dsDNA) DNA 1: GGAATAGGTGGATAAGCC DNA 2: GGCTTATCCACCTATTCC	nM	73
R3-18-4G (dsDNA) DNA 1: GGAGTAGGTGGAAAAGCC DNA 2: GGCTTTTCCACCTACTCC	nM	62

Notebook: R3-18-9C (dsDNA) DNA 1: GGAATAGGCGGAAAAGCC DNA 2: GGCTTTTCCGCCTATTCC , Kd read as 46

The reported value for R3-18-16A (dsDNA) DNA 1: GGAATAGGTGGAAAAACC DNA 2: GGTTTTTCCACCTATTCC in terms of Kd is 22

Lab book: Kd of R8-18 (dsDNA) DNA 1: GGAAAAGCTGGAATTGTT DNA 2: AACAATTCCAGCTTTTCC noted as 56

Measured Kd, R3-18-6C (dsDNA) DNA 1: GGAATCGGTGGAAAAGCC DNA 2: GGCTTTTCCACCGATTCC : 60

Input R3-18-1C (dsDNA) DNA 1: CGAATAGGTGGAAAAGCC DNA 2: GGCTTTTCCACCTATTCG . Output Kd: 216

So for R3-18-10T (dsDNA) DNA 1: GGAATAGGTTGAAAAGCC DNA 2: GGCTTTTCAACCTATTCC , the logged Kd turned out to be 18

The recorded Kd for entry R3-18-15G (dsDNA) DNA 1: GGAATAGGTGGAAAGGCC DNA 2: GGCCTTTCCACCTATTCC equals 88

Query R3-18-5C (dsDNA) DNA 1: GGAACAGGTGGAAAAGCC DNA 2: GGCTTTTCCACCTGTTCC yields Kd of 39

Noted for R3-18-17A (dsDNA) DNA 1: GGAATAGGTGGAAAAGAC DNA 2: GTCTTTTCCACCTATTCC : its Kd reads 84

Entry R3-18-8A (dsDNA) DNA 1: GGAATAGATGGAAAAGCC DNA 2: GGCTTTTCCATCTATTCC , Kd reported as 30

Recorded result, R3-18-5G (dsDNA) DNA 1: GGAAGAGGTGGAAAAGCC DNA 2: GGCTTTTCCACCTCTTCC , Kd: 38

Recorded Kd (binder R3-18-2A (dsDNA) DNA 1: GAAATAGGTGGAAAAGCC DNA 2: GGCTTTTCCACCTATTTC ): 59
